Test system: HEK293
test-name: Cytotoxicity against human HEK293 cells at 3 uM after 7 hrs by WST-8 assay
Format: cell-based
protocol-conditions: hek293, 7 h
property-measured: Activity

C=C1C(=O)O[C@@H]2[C@H]3C(=C)[C@@H](O)C[C@H]3C(=C)C[C@H](O)[C@@H]12 [DESACYLCYNAROPICRIN]; Non-Toxic
C=C1[C@@H]2[C@H]3OC(=O)C(C)[C@@H]3[C@@H](OC(=O)C(C)CO)CC(=C)[C@@H]2C[C@@H]1O (stereo partly drawn); Non-Toxic
C=C(COC(C)=O)C(=O)O[C@H]1CC(=C)[C@@H]2C[C@H](OC(C)=O)C(=C)[C@@H]2[C@H]2OC(=O)C(=C)[C@@H]21; Non-Toxic
